- Tested on: PC-3 prostate
- Measurement Protocol: NCI-60 one-dose screen, 48 h (100 = growth as untreated, 0 = no growth, -100 = all killed)
- Condition: 10 µM unless noted
- Method: Growth inhibition of the PC-3 human tumor cell line is measured as a screen for anti-cancer activity. Cells are grown in 96 well plates and exposed to the test compound for 48 hours. Compounds are tested at a single concentration, which is 10^-5 M for most compounds. The reported endpoint is percent growth (GI% or GIPRCNT), where numbers from 0 - 100% represent growth inhibition, and numbers from -100% - 0 represent cell death. For example, a value of 40 represents 60% growth inhibition. […]
Compounds without any hit were thinned out: in the full panel of roughly 83,000, 20% have a hit.
Consider the following molecules; for each one, report its growth.
// units = %; emit number, no label

Input line: Any idea what its growth is? The molecule is "O=C(/C=C/c1ccco1)Nc1ncc(Cc2cc(Cl)ccc2Cl)s1"
Output line: 25.3

Input line: Continue with "CC(=O)c1sc(-c2ccc(F)cc2)cc1O"
Output line: 93.9

Input line: Continue with "c1ccc(-c2ccc3c(c2)C2(CCNCC2)CN3)cc1"
Output line: 86.9

Input line: Continue with Nc1ncnc2c1N=C(c1ccc(Cl)cc1)CC(c1cccc(Nc3ccnc4cc(Cl)ccc34)c1)N2 (stereo not given)
Output line: 55.4

Input line: Continue with "CN1c2ccccc2S(=O)(=O)n2c(SCC(=O)Nc3nc4ccc(F)cc4s3)nnc21"
Output line: 87.8

Input line: Continue with "CSc1ccc2c3c(n(CCCn4ccnc4)c(=O)c2c1)-c1ccccc1C3=O"
Output line: 45.6

Input line: Continue with "COc1cc(-c2ccc(-c3ccc(C(=N)N)cc3)s2)cc(OC)c1OC"
Output line: 53.4

Input line: Continue with "CN(C)CCCNC(=O)c1cncnc1Nc1ccc2c(ccn2Cc2cccc(F)c2)c1"
Output line: 86

Input line: Continue with CC(C)=CC(=O)N[C@H]1CC[C@]2(C)C3CC[C@]4(C)C(C(C)N(C)C)=CCC4C3CCC2[C@H]1O (stereo not given in full)
Output line: 37.7

Input line: Continue with "COc1cc(/C=C/c2cn[nH]c2-c2ccc(C)cc2)cc(OC)c1OC"
Output line: 28.2

Input line: Continue with CC(O)Cc1c[nH]c(=O)[nH]c1=O (stereo not given)
Output line: 126

Input line: Continue with "C=C1SC(=Nc2ccccc2Cl)N(C(=O)c2sc3ccccc3c2Cl)C1(C)C"
Output line: 30.7

Input line: Continue with O=C1CCC(C(=O)N/N=C/c2cc(F)ccc2F)N1 (stereo not given)
Output line: 95.8

Input line: Continue with "COc1ccc2[nH]cc(-c3nonc3-c3c[nH]c4ccc(Br)cc34)c2c1"
Output line: 39.8

Input line: Continue with CCn1cc(C(=O)N/N=C/c2cccc(F)c2)c(=O)c2cc(F)c(N3CCNC(C)C3)c(F)c21 (stereo not given)
Output line: 69.6

---

- Test system: A498 renal
- Measurement Protocol: NCI-60 one-dose screen, 48 h
- Condition: 10 µM unless noted
- Procedure: Growth inhibition of the A498 human tumor cell line is measured as a screen for anti-cancer activity. Cells are grown in 96 well plates and exposed to the test compound for 48 hours. Compounds are tested at a single concentration, which is 10^-5 M for most compounds. The reported endpoint is percent growth (GI% or GIPRCNT), where numbers from 0 - 100% represent growth inhibition, and numbers from -100% - 0 represent cell death. For example, a value of 40 represents 60% growth inhibition. […]
About 83,000 compounds went through this panel and 20% of them were active in at least one assay; those are over-represented in the sample as a whole. Activity calls are given as the source filed them. How the source made its calls: active means growth percent below 10; inactive means the rest.
Valid outcomes are listed here; reply with one: true (1) (active), false (0) (inactive)

Input line: Query: recorded result category for "CCC(C)(C)c1ccc(Nc2ccc(Nc3ccc(C(C)(C)CC)cc3)cc2)cc1" in this test
Output line: false (0)

Input line: Continue with COC1C(O)CC(OC2CC(OC3CC(O[C@@H]4C(=O)c5c(cc6cc(OC7CC(OC8CC(O)C(O)C(C)O8)C(O)C(C)O7)c(C)c(O)c6c5O)CC4[C@H](OC)C(=O)O)OC(C)C3O)OC(C)C2O)OC1C (some centres not stated)
Output line: true (1)

Input line: Continue with "O=C(Nc1ccc(Oc2cccc(Cl)c2)c(Cl)c1)c1cccnn1"
Output line: false (0)

Input line: Continue with "N#Cc1c(-c2ccccc2)nc2c(c(-c3ccc(Cl)cc3)nn2-c2ccccc2)c1-c1ccc([N+](=O)[O-])cc1"
Output line: false (0)

Input line: Continue with "Nc1cc(C(=O)O)cc(-n2c(O)c(C=C3N=c4ccccc4=N3)sc2=S)c1"
Output line: false (0)

Input line: Continue with "COc1ccc(-c2cn(Cc3cc4ccccc4s3)nn2)cc1OCCN1CCCCC1"
Output line: true (1)

Input line: Continue with "COc1cccc(CNc2c3ccccc3nc3ccccc23)c1OC"
Output line: true (1)

Input line: Continue with OC1(c2ccccc2)c2ccccc2N(c2ccccc2)c2ccc(Cl)cc21 (configuration not stated)
Output line: true (1)

Input line: Continue with "O=C(NCCN1CCOCC1)OCc1ccc2c(Cl)cc(Cl)c(O)c2n1"
Output line: false (0)

Input line: Continue with "CC(=O)c1ccc(-n2cc(CN3CCN(c4cc5c(cc4F)c(=O)c(C(=O)O)cn5C4CC4)CC3)nn2)cc1"
Output line: false (0)

Input line: Continue with CCOC(=O)C(CCN(C)C)c1ccccc1 (configuration not stated)
Output line: false (0)

Input line: Continue with "Oc1ccc(-c2nc3ccc4[nH]ncc4c3c3c2CCCC3)c(F)c1"
Output line: false (0)

Input line: Continue with "O=C(Cn1nc(-c2cccc3ccccc23)ccc1=O)NCc1cccc(Cl)c1"
Output line: false (0)

Input line: Continue with "Cc1nn(-c2ccc([N+](=O)[O-])cc2)c2ncnc(N/N=C/c3ccccc3O)c12"
Output line: false (0)

Input line: Continue with "COc1ccc(-c2nc3ccc(C)cc3c3c2c(=O)n(C)c(=O)n3C)cc1OC"
Output line: false (0)

Input line: Continue with "COC(=O)c1sccc1-c1cc(O)c(C(=O)Nc2ccccc2)s1"
Output line: false (0)

Input line: Continue with "CC1=C2CC/C(C)=C/CC[C@]3(C)O[C@H]3CC/C(C)=C/[C@H]2OC1"
Output line: false (0)
